// provenance: the supplement of paper PMC10567573

B1: RBBP5 (parent)
chain: TGTSNTTAIKSIEFARKGSCFLIN

# Variants of: B1
# assay.summary: protein stability index of a GFP-peptide fusion (GPS, HEK-293T) (PSI 1-6); higher = more stable;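 note: lentivirally expressed fusions sorted by FACS into six bins by GFP to DsRed ratio, PSI derived from sequencing read proportions per bin multiplied by bin number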
# condition.description: c terminus: a fixed tail appended
Quick reference: protein stability index of the listed items.
assay.readout: protein stability index

sequence_code="TGTSNTTAIKSIEFARKGSCFLVN [I23V]" assay_readout="protein stability index" measurement=2.62
sequence_code="TGTSNTTAYKSIEFARKGSCFLIN [I9Y]" assay_readout="protein stability index" measurement=1.88
sequence_code="TGTKNTTAIKSIEFARKGSCFLIN [S4K]" assay_readout="protein stability index" measurement=2.67
sequence_code="TGTSNTTAIKSIEFARNGSCFLIN [K17N]" assay_readout="protein stability index" measurement=2.63
sequence_code="TGTSNTTAIKSIEFARKGSCFKIN [L22K]" assay_readout="protein stability index" measurement=3.21
sequence_code="NGTSNTTAIKSIEFARKGSCFLIN [T1N]" assay_readout="protein stability index" measurement=2.3
sequence_code="AGTSNTTAIKSIEFARKGSCFLIN [T1A]" assay_readout="protein stability index" measurement=2.15
sequence_code="TGTSNTTAIKSIEFARKGSCFLIW [N24W]" assay_readout="protein stability index" measurement=2.71
sequence_code="TGTSNTTAIKSIEFARKGSCFLIF [N24F]" assay_readout="protein stability index" measurement=2.74
sequence_code="TGTSNTTGIKSIEFARKGSCFLIN [A8G]" assay_readout="protein stability index" measurement=2.84
sequence_code="DGTSNTTAIKSIEFARKGSCFLIN [T1D]" assay_readout="protein stability index" measurement=3.69
